B1: SLC6A17 (parent)
chain: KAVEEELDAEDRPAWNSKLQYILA

# Variants of: B1
# assayMethodText: protein stability index of a GFP-peptide fusion (GPS, HEK-293T) (PSI 1-6); higher = more stable;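 note: lentivirally expressed fusions sorted by FACS into six bins by GFP to DsRed ratio, PSI derived from sequencing read proportions per bin multiplied by bin number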
# conditionInfo: c terminus: a fixed tail appended
protein stability index class ranges: 1 (below 2), 2 (2 to below 3), 3 (3 or more)

Enquiry: Hey, which category is W15D in, do you know?
Return: 3

Enquiry: Now consider V3F .
Return: 2

Enquiry: Now consider A2D .
Return: 2

Enquiry: Now consider A9H .
Return: 2

Enquiry: Now consider A2F .
Return: 1

Enquiry: Now consider Y21F .
Return: 2

Enquiry: Now consider I22E .
Return: 3

Enquiry: Now consider L23E .
Return: 3

Enquiry: Now consider W15Y .
Return: 2

Enquiry: Now consider E10A .
Return: 2

Enquiry: Now consider D11I .
Return: 2

Enquiry: Now consider E5V .
Return: 2

Enquiry: Now consider P13I .
Return: 1

Enquiry: Now consider N16H .
Return: 2

Enquiry: Now consider A2C .
Return: 2

Enquiry: Now consider K1T .
Return: 2

Enquiry: Now consider D8W .
Return: 1

Enquiry: Now consider K18N .
Return: 3

Enquiry: Now consider L23N .
Return: 3

Enquiry: Now consider L19N .
Return: 3

Enquiry: Now consider E10M .
Return: 1

Enquiry: Now consider K1C .
Return: 1

Enquiry: Now consider K18Y .
Return: 3

Enquiry: Now consider E4S .
Return: 2

Enquiry: Now consider L19Q .
Return: 3

Enquiry: Now consider K18V .
Return: 1

Enquiry: Now consider W15L .
Return: 2

Enquiry: Now consider L19K .
Return: 3

Enquiry: Now consider E6H .
Return: 2

Enquiry: Now consider E6N .
Return: 2

Enquiry: Now consider L23C .
Return: 3

Enquiry: Now consider E6G .
Return: 2

Enquiry: Now consider P13K .
Return: 2

Enquiry: Now consider Q20Y .
Return: 2

Enquiry: Now consider L23P .
Return: 3

Enquiry: Now consider A24R .
Return: 3

Enquiry: Now consider Y21D .
Return: 3

Enquiry: Now consider I22G .
Return: 3

Enquiry: Now consider I22W .
Return: 2

Enquiry: Now consider S17W .
Return: 1

Enquiry: Now consider E5N .
Return: 1
